- ASSAY EXPLANATION: chemical genetic growth profiling, strain panel (AID 1159580);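 note: tested at 20 µM; growth read once vehicle control cultures reached saturation at 30 °C; 1 = growth at the plate median or of vehicle wells; lower values mean less growth of the strain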
- CONDITION SUMMARY: S. cerevisiae deletion strains, growth OD, locus YNL020C, strain ARK1
Among all 5,500 compounds or so, about 2,000 (36%) were called active. Not shown: some 18% with an inconclusive outcome. Cut-off read from the data, not from the text of the source: active = normalized growth mostly below about 0.91 (no sharp cut-off); inconclusive = no clear call, values can overlap the other calls; inactive = mostly above about 0.92. This is one part of the list.
Field 'call' accepts yes (1) (active), no (0) (inactive)

Some entries whose results are on file:
MOLECULE	LABEL VALUE
CCc1ccn2cc(Nc3ccccc3Cl)nc2c1	no (0)
CC(=O)ON=C1c2cc([N+](=O)[O-])ccc2-c2ccc([N+](=O)[O-])cc21	no (0)
N#CC(C#N)=Cc1ccc(-c2ccccc2C(F)(F)F)o1	no (0)
O=[N+]([O-])c1ccc2oc(C(O)c3ccc(-c4ccccc4)cc3)cc2c1 (stereo not drawn)	no (0)
O=[N+]([O-])c1ccc(Sc2ssc(=S)c2-c2ccccc2)nc1	yes (1)
CC(C)(CCC(C)(C)N1C(=O)c2cccc3cccc(c23)C1=O)N1C(=O)c2cccc3cccc(c23)C1=O	yes (1)

Exam item: Which outcome was entered for the molecule Cc1ccc(NS(=O)(=O)c2ccc(Cl)cc2)c(N=Cc2cc(Cl)cc(Cl)c2O)c1 in this test?
Marked response: yes (1)
